So I've got a bunch of compounds here, and I need their EC50 values.
System: CCRF-CEM
TEST: Concentration required to inhibit human immunodeficiency virus-1 (strain IIIb) induced cytopathogenicity in CEM cells by 50%
Type: functional, cell-based

The reported value for OCCOCn1cc2ccnc-2nc1O in terms of EC50 is > 250 µM

Recorded EC50 (compound CCCCCC#Cc1cc2cn(COCCO)c(=O)nc2o1 ): > 50 µM

The value of EC50 measured for the compound CCCCCCCCCCc1cc2cn(COCCO)c(=O)nc2o1 turned out to be > 250 µM

Form: compound = CCCCc1cc2cn(COCCO)c(=O)nc2o1 ; EC50 = > 250 µM

So, CCCCCCCc1cc2cn(COCCO)c(O)nc-2n1 ? Its EC50 was > 250 µM

Reported EC50 ( CCCCCCCCCc1cc2cn(COCCO)c(=O)nc2o1 ) = > 250 µM

Looking up CCCCCCCc1cc2cn(COCCO)c(=O)nc2o1 , I found its EC50 recorded as > 50 µM

For reference, reported EC50 for CCCCCCCCc1cc2cn(COCCO)c(=O)nc2o1 stands at > 50 µM

Notebook: CCCCC#Cc1cc2cn(COCCO)c(=O)nc2o1 , EC50 read as > 50 µM

Form: compound = O=c1[nH]c(=O)n([C@H]2C[C@H](O)[C@@H](CO)O2)cc1/C=C/Br ; EC50 = > 50 µM

Consider CCCCc1cc2cn(COCCO)c(O)nc-2n1 . Its measured EC50 is > 250 µM

Just so you know, measured EC50 for CCCCCCCCCCc1cc2cn(COCCO)c(O)nc-2n1 came out at > 10 µM

CCCCCCCCCc1cc2cn(COCCO)c(O)nc-2n1 yielded EC50 of > 50 µM

====

Test system: HEL
TEST: Concentration required to cause a microscopically visible alteration of cell morphology in HEL cells
Format: functional
EXPERIMENTAL_SETUP: Homo sapiens
METRIC_NAME: MCC

Consider CCCCCCCC#Cc1cc2cn(COCCO)c(=O)nc2o1 . Its measured MCC is 200 µM

Value of MCC reported for the compound CCCCCCCc1cc2cn(COCCO)c(O)nc-2n1 is ≥ 400 µM

MCC recorded for this compound, C#Cc1cn(COCCO)c(=O)[nH]c1=O , is > 400 µM

The recorded MCC for entry CCCCC#Cc1cc2cn(COCCO)c(=O)nc2o1 equals > 100 µM

The value of MCC measured for the compound CCCCCCCCCCc1cc2cn(COCCO)c(O)nc-2n1 turned out to be 80 µM

Entry CCCCc1cc2cn(COCCO)c(=O)nc2o1 ; MCC = > 400 µM

For reference, reported MCC for CCCCCCC#Cc1cc2cn(COCCO)c(=O)nc2o1 stands at > 200 µM

The compound identified as CCCCCc1cc2cn(COCCO)c(=O)nc2o1 registered its MCC at > 400 µM

MCC reading for CCCCCC#Cc1cc2cn(COCCO)c(=O)nc2o1 : ≥ 100 µM

So for CCCCc1cc2cn(COCCO)c(O)nc-2n1 , the logged MCC turned out to be > 400 µM

The compound identified as CCCCCCc1cc2cn(COCCO)c(O)nc-2n1 registered its MCC at > 400 µM

The compound identified as CCCCCCc1cc2cn(COCCO)c(=O)nc2o1 registered its MCC at ≥ 400 µM

Data point: CCCCCCCCc1cc2cn(COCCO)c(O)nc-2n1 ; MCC = 80 µM

====

System: HEL
TEST: Concentration required to inhibit herpes simplex virus type 1 induced cytopathogenicity in HEL cells by 50%
Type: functional, cell-based
EXPERIMENTAL_SETUP: Homo sapiens
pEC50: −log10 of the molar value.
METRIC_NAME: pEC50

// returns pEC50 for CCCCCCCCC#Cc1cc2cn(COCCO)c(=O)nc2o1 with HEL; value = < 4.40

Item CCCCCCCCCCCc1cc2cn(COCCO)c(=O)nc2o1 ; assay system HEL; pEC50 reported as < 4.40

Tested system HEL; pEC50 recorded for CCCCc1cc2cn(COCCO)c(=O)nc2o1 was < 3.40

Measured on HEL, CCCCCCCCCCc1cc2cn(COCCO)c(O)nc-2n1 has a documented pEC50 of < 4.80

Entry CCCCC#Cc1cc2cn(COCCO)c(=O)nc2o1 ; assay system HEL; pEC50 recorded at < 3.70

GET /values?item= CCCCCCCC#Cc1cc2cn(COCCO)c(=O)nc2o1 &system= HEL returns pEC50: < 4.40

Item CCCCCCc1cc2cn(COCCO)c(=O)nc2o1 was tested on HEL; the reported pEC50 is < 4.80

====

Tested on: HEL
TEST: Concentration required to cause a microscopically visible alteration of cell morphology in HEL cells
Type: functional
EXPERIMENTAL_SETUP: Homo sapiens
METRIC_NAME: MCC

Summary for this compound, CCCCCCCCC#Cc1cc2cn(COCCO)c(=O)nc2o1 : MCC is ≥ 20 µM

// recorded MCC for CCCCCCCCCCCc1cc2cn(COCCO)c(=O)nc2o1 : 80 µM

// MCC value for CCCCCCCc1cc2cn(COCCO)c(=O)nc2o1 : 400 µM

MCC recorded for this compound, CCCCCCCCc1cc2cn(COCCO)c(=O)nc2o1 , is ≥ 80 µM

Just so you know, measured MCC for CCCCCCCCCC#Cc1cc2cn(COCCO)c(=O)nc2o1 came out at ≥ 20 µM

Input CCCCCCCCCCc1cc2cn(COCCO)c(=O)nc2o1 . Output MCC: 400 µM

Record summary for OCCOCn1cc2ccnc-2nc1O : reported MCC = > 400 µM

Notebook: CCCCCc1cc2cn(COCCO)c(O)nc-2n1 , MCC read as > 400 µM

Lab note: O=c1nc2occc2cn1COCCO gave MCC of > 400 µM

So for CCCCCCCCCc1cc2cn(COCCO)c(O)nc-2n1 , the logged MCC turned out to be > 80 µM

compound CCCCCCCCCc1cc2cn(COCCO)c(=O)nc2o1 , MCC observed: ≥ 16 µM

Lab note: O=c1[nH]c(=O)n([C@H]2C[C@H](O)[C@@H](CO)O2)cc1/C=C/Br gave MCC of > 400 µM

Entry CCCCCCCCCCCc1cc2cn(COCCO)c(O)nc-2n1 — recorded MCC = 80 µM

====

System: HEL
TEST: Concentration required to inhibit herpes simplex virus type 2 induced cytopathogenicity in HEL cells by 50%
Assay type: functional, cell-based
EXPERIMENTAL_SETUP: Homo sapiens
pEC50: −log10 of the molar value.
METRIC_NAME: pEC50

Lab note: measured pEC50 of CCCCCCCCCc1cc2cn(COCCO)c(=O)nc2o1 was < 3.70

The recorded pEC50 for CCCCCCC#Cc1cc2cn(COCCO)c(=O)nc2o1 is < 3.70

pEC50 for CCCCCCc1cc2cn(COCCO)c(O)nc-2n1 is < 4.10

Query CCCCc1cc2cn(COCCO)c(O)nc-2n1 yields pEC50 of < 3.40

Sample CCCCCCCc1cc2cn(COCCO)c(=O)nc2o1 ; pEC50 observed: < 3.70

For this molecule ( CCCCC#Cc1cc2cn(COCCO)c(=O)nc2o1 ), measured pEC50 is < 3.70

// recorded pEC50 for CCCCCc1cc2cn(COCCO)c(O)nc-2n1 : < 3.40

The recorded pEC50 for CCCCCCCCCC#Cc1cc2cn(COCCO)c(=O)nc2o1 is < 4.40

Memo: CCCCc1cc2cn(COCCO)c(=O)nc2o1 , reported pEC50: < 3.40

Quick note, pEC50 for CCCCCCCCCCc1cc2cn(COCCO)c(O)nc-2n1 landed at < 4.80

Form field pEC50, entry CCCCCC#Cc1cc2cn(COCCO)c(=O)nc2o1 : < 3.70

Noted for CCCCCc1cc2cn(COCCO)c(=O)nc2o1 : its pEC50 reads < 3.40

Memo: CCCCCCCCC#Cc1cc2cn(COCCO)c(=O)nc2o1 , reported pEC50: < 4.40

Sample OCCOCn1cc2ccnc-2nc1O ; pEC50 observed: < 3.40

====

System: HEL
TEST: Concentration required to inhibit herpes simplex virus type 1 induced cytopathogenicity in HEL cells by 50%
Assay type: functional, cell-based
EXPERIMENTAL_SETUP: Homo sapiens
Please provide measured EC50 for the entries that follow.

Record C#Cc1cn(COCCO)c(=O)[nH]c1=O , field EC50: > 400 µM

Noted for CCCCCCCCCCCc1cc2cn(COCCO)c(O)nc-2n1 : its EC50 reads > 40 µM

# EC50 (molecule: CCCCCCCCCc1cc2cn(COCCO)c(=O)nc2o1 ) is > 200 µM

Memo: CCCCCCCCCc1cc2cn(COCCO)c(O)nc-2n1 , reported EC50: > 80 µM

Lookup result for CCCCCCCCCCc1cc2cn(COCCO)c(=O)nc2o1 ; measured EC50: > 16 µM

The reported value for CCCCCc1cc2cn(COCCO)c(O)nc-2n1 in terms of EC50 is > 400 µM

Recorded result, CCCCCCC#Cc1cc2cn(COCCO)c(=O)nc2o1 , EC50: > 200 µM

Reported EC50 for CCCCCCCCc1cc2cn(COCCO)c(=O)nc2o1 was > 16 µM

For reference, reported EC50 for O=c1[nH]c(=O)n([C@H]2C[C@H](O)[C@@H](CO)O2)cc1/C=C/Br [BRIVUDINE] stands at 0.16 µM

Entry CCCCCc1cc2cn(COCCO)c(=O)nc2o1 ; EC50 = > 400 µM

Sample CCCCCCCCCC#Cc1cc2cn(COCCO)c(=O)nc2o1 ; EC50 observed: > 40 µM

Form field EC50, entry O=c1nc2occc2cn1COCCO : > 400 µM

# credit: ChEMBL document CHEMBL1140321
